Target: UniProt:D3KTZ9
Sequence (D3KTZ9 entry or part of it): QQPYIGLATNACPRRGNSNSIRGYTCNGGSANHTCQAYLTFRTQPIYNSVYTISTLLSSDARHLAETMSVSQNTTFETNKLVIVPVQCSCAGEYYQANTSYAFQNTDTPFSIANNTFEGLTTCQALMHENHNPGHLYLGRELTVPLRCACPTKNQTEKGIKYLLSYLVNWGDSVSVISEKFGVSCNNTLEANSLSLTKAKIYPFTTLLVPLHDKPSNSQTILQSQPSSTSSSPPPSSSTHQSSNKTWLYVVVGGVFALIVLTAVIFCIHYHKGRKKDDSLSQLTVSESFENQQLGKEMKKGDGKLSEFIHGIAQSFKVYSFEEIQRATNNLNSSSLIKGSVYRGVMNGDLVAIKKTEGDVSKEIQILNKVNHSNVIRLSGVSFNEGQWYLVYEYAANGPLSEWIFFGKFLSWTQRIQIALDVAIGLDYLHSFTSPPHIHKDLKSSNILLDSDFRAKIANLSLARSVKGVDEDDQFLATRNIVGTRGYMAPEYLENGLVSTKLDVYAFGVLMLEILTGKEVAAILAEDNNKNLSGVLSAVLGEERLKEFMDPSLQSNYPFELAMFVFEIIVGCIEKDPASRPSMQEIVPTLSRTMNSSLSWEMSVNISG
Assay: Equilibrium, saturation and competitive binding on MtLYR3 ortholog expressed in N. benthamiana leaves
Conditions: LjLYS12; read-out: Affinity (Ki)
parameter: pKi
Note on pKi: it is the negative log10 of concentration, concentration in mol/L.

CCCCCCCC/C=C\CCCCCCCC(=O)N[C@H]1[C@H](O[C@H]2[C@H](O)[C@@H](NC(C)=O)[C@H](O[C@H]3[C@H](O)[C@@H](NC(C)=O)[C@H](O[C@H]4[C@H](O)[C@@H](NC(C)=O)C(O)O[C@@H]4COS(=O)(=O)O)O[C@@H]3CO)O[C@@H]2CO)O[C@H](CO)[C@@H](O)[C@@H]1O (stereo partly drawn) [LCO-IV(S, C18:1Δ9)] | 8.15

Recorded result, CCCCCCCCCCCCCCCC(=O)N[C@H]1[C@H](O[C@H]2[C@H](O)[C@@H](NC(C)=O)[C@H](O[C@H]3[C@H](O)[C@@H](NC(C)=O)[C@H](O[C@H]4[C@H](O)[C@@H](NC(C)=O)C(O)O[C@@H]4COS(=O)(=O)O)O[C@@H]3CO)O[C@@H]2CO)O[C@H](CO)[C@@H](O)[C@@H]1O (stereo partly drawn) [LCO-IV(S, C16:0)] , pKi: 7.96

Recorded result, CCCCCCCCCCCCCCCC(=O)N[C@H]1[C@H](O[C@H]2[C@H](O)[C@@H](NC(C)=O)[C@H](O[C@H]3[C@H](O)[C@@H](NC(C)=O)[C@H](O[C@H]4[C@H](O)[C@@H](NC(C)=O)C(O)O[C@@H]4CO)O[C@@H]3CO)O[C@@H]2CO)O[C@H](CO)[C@@H](O)[C@@H]1O (stereo partly shown) , pKi: 7.38

----------
Below, each of the molecules is paired with its reported Ki value.
Target: LYR3 (Medicago truncatula, UniProt G7KAT5)
Sequence (G7KAT5 entry or part of it): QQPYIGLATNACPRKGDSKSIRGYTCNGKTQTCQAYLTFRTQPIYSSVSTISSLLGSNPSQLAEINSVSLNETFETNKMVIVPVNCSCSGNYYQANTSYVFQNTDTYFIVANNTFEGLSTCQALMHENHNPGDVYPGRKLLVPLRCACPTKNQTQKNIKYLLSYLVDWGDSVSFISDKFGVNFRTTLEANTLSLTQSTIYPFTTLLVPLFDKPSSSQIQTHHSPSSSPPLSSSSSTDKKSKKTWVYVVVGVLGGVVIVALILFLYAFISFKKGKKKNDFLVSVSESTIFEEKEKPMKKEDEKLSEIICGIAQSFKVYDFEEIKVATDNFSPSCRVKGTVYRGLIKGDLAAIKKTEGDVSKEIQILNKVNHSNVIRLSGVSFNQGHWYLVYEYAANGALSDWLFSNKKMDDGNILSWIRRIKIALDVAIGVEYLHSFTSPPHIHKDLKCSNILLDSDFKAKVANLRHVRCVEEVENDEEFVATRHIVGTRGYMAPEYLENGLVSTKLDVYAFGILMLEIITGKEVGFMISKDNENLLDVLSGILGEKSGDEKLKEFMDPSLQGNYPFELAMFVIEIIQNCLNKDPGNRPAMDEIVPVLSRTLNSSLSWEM
Assay: Saturation and competitive binding on LYR3-YFP expressed in N. benthamiana leaf membrane fractions
Settings: LYR3-YFP in N. benthamiana leaf membranes; competition with 0.9 nM LCO-IV(35S, C16:2Δ2,9); read-out: Affinity (nM) for LYR3 (Ki)
# output: bare number, implied unit nM

Below, 2 molecules whose answers are already recorded.
CCCCCCCC/C=C\CCCCC/C=C/C(=O)N[C@H]1[C@H](O[C@H]2[C@H](O)[C@@H](NC(C)=O)[C@H](O[C@H]3[C@H](O)[C@@H](NC(C)=O)[C@H](O[C@H]4[C@H](O)[C@@H](NC(C)=O)C(O)O[C@@H]4COS(=O)(=O)O)O[C@@H]3CO)O[C@@H]2CO)O[C@H](CO)[C@@H](O)[C@@H]1O (stereo partly drawn) [LCO-IV(S, C18:2Δ2, 9)] | 7
CCCCCC/C=C\CCCCCCCC(=O)N[C@H]1[C@H](O[C@H]2[C@H](O)[C@@H](NC(C)=O)[C@H](O[C@H]3[C@H](O)[C@@H](NC(C)=O)[C@H](O[C@H]4[C@H](O)[C@@H](NC(C)=O)C(O)O[C@@H]4COS(=O)(=O)O)O[C@@H]3CO)O[C@@H]2CO)O[C@H](CO)[C@@H](O)[C@@H]1O (stereo partly drawn) [LCO-IV(S, C16:1Δ9)] | 21

Next:
Recorded result, CCCCCC/C=C\CCCCC/C=C/C(=O)N[C@H]1[C@H](O[C@H]2[C@H](O)[C@@H](NC(C)=O)[C@H](O[C@H]3[C@H](O)[C@@H](NC(C)=O)[C@H](O[C@H]4[C@H](O)[C@@H](NC(C)=O)C(O)O[C@@H]4CO)O[C@@H]3CO)O[C@@H]2CO)O[C@H](CO)[C@@H](O)[C@@H]1O (stereo partly drawn) , Ki: 30

----------
Biological target: LYR3 (Medicago truncatula)
Assay: Saturation and competitive binding on LYR3-YFP expressed in N. benthamiana leaf membrane fractions
Details: LYR3-YFP in N. benthamiana leaf membranes; competition with 0.9 nM LCO-IV(35S, C16:2Δ2,9); read-out: Affinity (nM) for LYR3 (Ki)
Below, each of the compounds is paired with its reported Ki value.

CC(=O)N[C@H]1[C@H](O[C@H]2[C@H](O)[C@@H](NC(C)=O)C(O)O[C@@H]2CO)O[C@H](CO)[C@@H](O[C@@H]2O[C@H](CO)[C@@H](O[C@@H]3O[C@H](CO)[C@@H](O)[C@H](O)[C@H]3NC(C)=O)[C@H](O)[C@H]2NC(C)=O)[C@@H]1O (some centres unmarked) [CO-IV, chitotetraose] | > 5000 nM

Recorded result, CCCCCC/C=C\CCCCCCCC(=O)N[C@H]1[C@H](O[C@H]2[C@H](O)[C@@H](NC(C)=O)C(O)O[C@@H]2CO)O[C@H](CO)[C@@H](O)[C@@H]1O (some centres unmarked) [LCO-II(C16:1Δ9)] , Ki: > 5000 nM

----------
Below, each of the compounds is paired with its reported Ki value.
Target: LYR3 (Medicago truncatula, UniProt G7KAT5)
Assay: Saturation and competitive binding on LYR3-YFP expressed in N. benthamiana leaf membrane fractions
Conditions: LYR3-YFP in N. benthamiana leaf membranes; competition with 0.9 nM LCO-IV(35S, C16:2Δ2,9); read-out: Affinity (nM) for LYR3 (Ki)
# output: bare number, implied unit nM

CCCCCC/C=C\CCCCCCCC(=O)N[C@H]1[C@H](O[C@H]2[C@H](O)[C@@H](NC(C)=O)[C@H](O[C@H]3[C@H](O)[C@@H](NC(C)=O)C(O)O[C@@H]3CO)O[C@@H]2CO)O[C@H](CO)[C@@H](O)[C@@H]1O (some centres unmarked) [LCO-III(C16:1Δ9)] | 79

Recorded result, CC(=O)N[C@H]1[C@H](O[C@H]2[C@H](O)[C@@H](NC(C)=O)[C@H](O[C@H]3[C@H](O)[C@@H](NC(C)=O)C(O)O[C@@H]3CO)O[C@@H]2CO)O[C@H](CO)[C@@H](O[C@@H]2O[C@H](CO)[C@@H](O[C@@H]3O[C@H](CO)[C@@H](O)[C@H](O)[C@H]3NC(C)=O)[C@H](O)[C@H]2NC(C)=O)[C@@H]1O (some centres unmarked) [CO-V] , Ki: 12000

----------
Below, each of the molecules is paired with its reported Ki value.
Target: PsLYR3 (Lathyrus oleraceus)
Sequence (A0A9D5BD18 entry or part of it): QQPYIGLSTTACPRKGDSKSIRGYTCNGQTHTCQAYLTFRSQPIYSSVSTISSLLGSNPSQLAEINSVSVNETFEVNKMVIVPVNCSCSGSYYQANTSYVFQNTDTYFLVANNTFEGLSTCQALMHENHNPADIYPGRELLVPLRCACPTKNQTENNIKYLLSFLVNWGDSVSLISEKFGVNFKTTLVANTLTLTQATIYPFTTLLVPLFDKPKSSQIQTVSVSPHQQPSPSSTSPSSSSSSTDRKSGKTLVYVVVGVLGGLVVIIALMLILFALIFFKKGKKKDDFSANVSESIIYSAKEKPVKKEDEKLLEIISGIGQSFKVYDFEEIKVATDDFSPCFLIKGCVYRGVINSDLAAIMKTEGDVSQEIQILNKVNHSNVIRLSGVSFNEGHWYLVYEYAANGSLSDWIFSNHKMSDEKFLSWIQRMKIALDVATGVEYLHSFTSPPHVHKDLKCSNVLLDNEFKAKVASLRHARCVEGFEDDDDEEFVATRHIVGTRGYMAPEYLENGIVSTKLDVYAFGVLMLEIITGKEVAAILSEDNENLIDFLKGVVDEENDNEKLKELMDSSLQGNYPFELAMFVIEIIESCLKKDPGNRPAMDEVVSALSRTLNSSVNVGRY
Assay: Equilibrium, saturation and competitive binding on MtLYR3 ortholog expressed in N. benthamiana leaves
Conditions: PsLYR3; read-out: Affinity (Ki)
# output: bare number, implied unit nM

CCCCCCCCCCCCCCCC(=O)N[C@H]1[C@H](O[C@H]2[C@H](O)[C@@H](NC(C)=O)[C@H](O[C@H]3[C@H](O)[C@@H](NC(C)=O)[C@H](O[C@H]4[C@H](O)[C@@H](NC(C)=O)C(O)O[C@@H]4COS(=O)(=O)O)O[C@@H]3CO)O[C@@H]2CO)O[C@H](CO)[C@@H](O)[C@@H]1O (stereo partly drawn) [LCO-IV(S, C16:0)] | 24
CCCCCCCC/C=C\CCCCCCCC(=O)N[C@H]1[C@H](O[C@H]2[C@H](O)[C@@H](NC(C)=O)[C@H](O[C@H]3[C@H](O)[C@@H](NC(C)=O)[C@H](O[C@H]4[C@H](O)[C@@H](NC(C)=O)C(O)O[C@@H]4COS(=O)(=O)O)O[C@@H]3CO)O[C@@H]2CO)O[C@H](CO)[C@@H](O)[C@@H]1O (stereo partly drawn) [LCO-IV(S, C18:1Δ9)] | 16

Next:
Recorded result, CCCCCCCCCCCCCCCC(=O)N[C@H]1[C@H](O[C@H]2[C@H](O)[C@@H](NC(C)=O)[C@H](O[C@H]3[C@H](O)[C@@H](NC(C)=O)[C@H](O[C@H]4[C@H](O)[C@@H](NC(C)=O)C(O)O[C@@H]4CO)O[C@@H]3CO)O[C@@H]2CO)O[C@H](CO)[C@@H](O)[C@@H]1O (stereo partly shown) [LCO-IV(C16:0)] , Ki: 50

----------
Target: GmLYR3-11 (Glycine max, UniProt I1LHL9)
Sequence (I1LHL9 entry or part of it): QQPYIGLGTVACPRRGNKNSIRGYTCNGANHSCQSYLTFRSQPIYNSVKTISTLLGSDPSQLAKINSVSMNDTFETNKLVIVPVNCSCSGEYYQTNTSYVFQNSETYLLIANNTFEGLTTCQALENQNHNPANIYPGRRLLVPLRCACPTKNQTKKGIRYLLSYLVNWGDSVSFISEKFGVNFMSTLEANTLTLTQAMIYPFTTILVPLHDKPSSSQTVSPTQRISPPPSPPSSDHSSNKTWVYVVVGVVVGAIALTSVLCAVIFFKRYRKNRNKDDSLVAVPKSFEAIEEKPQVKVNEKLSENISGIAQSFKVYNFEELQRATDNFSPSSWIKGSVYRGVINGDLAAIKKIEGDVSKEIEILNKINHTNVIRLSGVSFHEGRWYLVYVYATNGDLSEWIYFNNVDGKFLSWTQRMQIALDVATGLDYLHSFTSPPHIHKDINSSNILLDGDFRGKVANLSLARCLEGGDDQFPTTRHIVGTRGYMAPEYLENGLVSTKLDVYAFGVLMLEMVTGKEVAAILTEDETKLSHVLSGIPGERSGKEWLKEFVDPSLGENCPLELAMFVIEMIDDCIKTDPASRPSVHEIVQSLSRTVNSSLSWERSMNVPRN
Experiment: Equilibrium, saturation and competitive binding on MtLYR3 ortholog expressed in N. benthamiana leaves
Conditions: GmLYR3-11; read-out: Affinity (Ki)
Method: In legumes, MtLYR3 orthologs have been identified in P. sativum, P. vulgaris and L. japonicus. In G. max orthologs exist in duplicate due to a duplication of the genome. The corresponding genes have been cloned and sequenced. […] The value of specific binding is determined by the value of difference between the total binding and the nonspecific binding obtained for incubation in the presence of an excess (2 μM) of unlabeled ligand. […]
Below, each of the compounds is paired with its reported pKi value.
Note on pKi: it is the negative log10 of concentration, concentration in mol/L.

Recorded result, CCCCCCCC/C=C\CCCCCCCC(=O)N[C@H]1[C@H](O[C@H]2[C@H](O)[C@@H](NC(C)=O)[C@H](O[C@H]3[C@H](O)[C@@H](NC(C)=O)[C@H](O[C@H]4[C@H](O)[C@@H](NC(C)=O)C(O)O[C@@H]4COS(=O)(=O)O)O[C@@H]3CO)O[C@@H]2CO)O[C@H](CO)[C@@H](O)[C@@H]1O (stereo partly drawn) [LCO-IV(S, C18:1Δ9)] , pKi: 7.72

Recorded result, CCCCCCCCCCCCCCCC(=O)N[C@H]1[C@H](O[C@H]2[C@H](O)[C@@H](NC(C)=O)[C@H](O[C@H]3[C@H](O)[C@@H](NC(C)=O)[C@H](O[C@H]4[C@H](O)[C@@H](NC(C)=O)C(O)O[C@@H]4COS(=O)(=O)O)O[C@@H]3CO)O[C@@H]2CO)O[C@H](CO)[C@@H](O)[C@@H]1O (stereo partly drawn) [LCO-IV(S, C16:0)] , pKi: 7.49

Recorded result, CCCCCCCCCCCCCCCC(=O)N[C@H]1[C@H](O[C@H]2[C@H](O)[C@@H](NC(C)=O)[C@H](O[C@H]3[C@H](O)[C@@H](NC(C)=O)[C@H](O[C@H]4[C@H](O)[C@@H](NC(C)=O)C(O)O[C@@H]4CO)O[C@@H]3CO)O[C@@H]2CO)O[C@H](CO)[C@@H](O)[C@@H]1O (stereo partly shown) [LCO-IV(C16:0)] , pKi: 6.85

Source: patent US20150232876A1
